Molecular target: human plasma kallikrein (human, UniProt P03952 20-390; P03952 391-638)
Sequence (P03952 20-390, chain 1 of 2): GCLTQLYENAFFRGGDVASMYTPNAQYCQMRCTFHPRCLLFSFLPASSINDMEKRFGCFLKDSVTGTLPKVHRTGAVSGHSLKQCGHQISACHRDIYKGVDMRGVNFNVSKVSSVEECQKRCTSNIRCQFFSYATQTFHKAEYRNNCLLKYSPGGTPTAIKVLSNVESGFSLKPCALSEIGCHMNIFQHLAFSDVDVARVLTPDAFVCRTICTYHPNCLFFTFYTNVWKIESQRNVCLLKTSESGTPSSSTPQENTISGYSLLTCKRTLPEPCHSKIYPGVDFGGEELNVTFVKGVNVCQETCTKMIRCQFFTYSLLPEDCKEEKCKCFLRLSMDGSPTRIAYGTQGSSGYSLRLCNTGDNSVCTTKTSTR
Sequence (P03952 391-638, chain 2 of 2): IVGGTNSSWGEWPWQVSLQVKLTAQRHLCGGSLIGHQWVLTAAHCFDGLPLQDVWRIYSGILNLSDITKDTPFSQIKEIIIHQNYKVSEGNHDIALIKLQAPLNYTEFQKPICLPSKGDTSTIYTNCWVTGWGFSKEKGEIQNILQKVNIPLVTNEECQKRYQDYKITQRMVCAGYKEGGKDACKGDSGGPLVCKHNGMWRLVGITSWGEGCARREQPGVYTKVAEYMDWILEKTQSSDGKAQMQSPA
Experiment: cell-based or functional assay
Please note: label 1 applies when % inhibition at 10 nM is 70% or greater, and label 0 applies otherwise.

Ask: Could you please find out whether M196-H03 (Fab, V domains shown) VH: EVQLLESGGGLVQPGGSLRLSCAASGFTFSRYVMWWVRQAPGKGLEWVSSISPSGDTHYADSVKGRFTISRDNSKNTLYLQMNSLRAEDTAVYYCAYRRTGIPRRDAFDIWGQGTMVTVSS VL: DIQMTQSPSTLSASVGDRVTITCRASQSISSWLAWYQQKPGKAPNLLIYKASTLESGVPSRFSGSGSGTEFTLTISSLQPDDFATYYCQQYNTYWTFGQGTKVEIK has % inhibition at 10 nM that meets 70% or exceeds it?
Reply: label 1

Ask: Here is the next binder: M197-A01 (Fab, V domains shown) VH: EVQLLESGGGLVQPGGSLRLSCAASGFTFSIYDMIWVRQAPGKGLEWVSSIYPSGGNTSYADSVKGRFTISRDNSKNTLYLQMNSLRAEDTAVYYCAYRRTGIPRRDAFDIWGQGTMVTVSS VL: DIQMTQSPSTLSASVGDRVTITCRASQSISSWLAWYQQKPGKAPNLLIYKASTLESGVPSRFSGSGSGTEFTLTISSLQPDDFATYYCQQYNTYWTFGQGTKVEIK
Reply: label 1

Ask: Here is the next binder: M198-H09 (Fab, V domains shown) VH: EVQLLESGGGLVQPGGSLRLSCAASGFTFSIYLMIWVRQAPGKGLEWVSYIGPSGGPTEYADSVKGRFTISRDNSKNTLYLQMNSLRAEDTAVYYCAYRRTGIPRRDAFDIWGQGTMVTVSS VL: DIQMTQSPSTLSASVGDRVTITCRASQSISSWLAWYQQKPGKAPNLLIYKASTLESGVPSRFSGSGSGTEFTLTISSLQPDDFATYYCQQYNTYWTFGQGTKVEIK
Reply: label 0

Ask: Here is the next binder: M200-F01 (Fab, V domains shown) VH: EVQLLESGGGLVQPGGSLRLSCAASGFTFSHYIMMWVRQAPGKGLEWVSGIYSSGGITVYADSVKGRFTISRDNSKNTLYLQMNSLRAEDTAVYYCAYRRMGIPRRNAFDIWGQGTMVTVSS VL: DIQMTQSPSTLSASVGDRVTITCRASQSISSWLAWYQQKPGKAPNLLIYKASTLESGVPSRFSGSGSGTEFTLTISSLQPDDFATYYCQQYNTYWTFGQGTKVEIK
Reply: label 0

Ask: Here is the next binder: M201-H08 (Fab, V domains shown) VH: EVQLLESGGGLVQPGGSLRLSCAASGFTFSHYIMMWVRQAPGKGLEWVSGIYSSGGITVYADSVKGRFTISRDNSKNTLYLQMNSLRAEDTAVYYCAYRRTGVPRRDALDNWGQGTMVTVSS VL: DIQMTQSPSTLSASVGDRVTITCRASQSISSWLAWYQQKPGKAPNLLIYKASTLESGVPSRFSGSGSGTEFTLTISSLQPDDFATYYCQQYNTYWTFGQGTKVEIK
Reply: label 1
